B1: library; a variant is named by its letters at N, in order (parent)
chain: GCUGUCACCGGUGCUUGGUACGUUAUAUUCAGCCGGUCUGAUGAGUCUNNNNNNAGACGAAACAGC

- Variants of: B1
- protocol: normalized RNA/DNA level with ligand (relative to sTRSVctl = 100) (log10 (% of sTRSVctl)); HEK293T overexpressing SLC46A1; ligand concentration (+) RNA-Seq: 6 mM; higher = less ribozyme self-cleavage, higher mRNA level
- testParameters: with (6R,S)-folinic acid; ligand present: yes
resultType: normalized RNA/DNA level with ligand (log10)
Could you respond with only the numeric value?

Solved cases (5 shown):
1) GCUAGA: 2.04
2) GCAAAC: 2.02
3) CAGUAA: 1.99
4) AGACAG: 2.01
5) UUGACU: 2.04

Lookup: Quick one: normalized RNA/DNA level with ligand (log10) for UUUUUU ?
Found: 2.03

Lookup: Quick one: normalized RNA/DNA level with ligand (log10) for GUUGAG ?
Found: 2.03

Lookup: Quick one: normalized RNA/DNA level with ligand (log10) for GCUAAA ?
Found: 2.02

Lookup: Quick one: normalized RNA/DNA level with ligand (log10) for UGGAUU ?
Found: 2.03

Lookup: Quick one: normalized RNA/DNA level with ligand (log10) for CUUUGU ?
Found: 1.99
